Tested on: MS2 coat protein
procedure-details: apparent Kd, MS2 coat protein; higher = weaker binding; RNA-MaP array
particulars: ligand present: flavin mononucleotide; designed as: OFF switch for flavin mononucleotide
quantity-name: apparent Kd (nM)
Report the figure in nM without appending any unit label.

GET /value?item= "UAUAAUGAAGGAUAUACAUGAGGAUCACCCAUGUUAGACUCUCAGUCGACAGUAAUCCGUAGAAGGUCAUGCCA" &field=apparent Kd returns 13.6

Sure, the documented apparent Kd for "ACCCGCUCCUGAGGAUAUCCGGCAUGACAUGAGGAUCACCCAUGUGGGCUCGUGGAGGGAGUGCAGGAGAAGGCAGUAGGCGCU" is 82.6

For reference, reported apparent Kd for "GAGCCACAUGAGGAUCACCCAUGUCAGGAUAUCGCAAGCGGGAAUAAGCCAACGUCUACGAGAAGGGACUAAUG" stands at 10.3

The sequence listed as "CCGUUCGCCGAGAAGGGACAGGACUUAAUAGCGUCAGGAUAUCGCGGACCGUGAUUCUAUGACAUGAGGAUCACCCAUGUGCUU" has a reported apparent Kd of 11.7

Memo: "CUUGUGUGAGGAUAUUAGACACAAUCCGACAGCGGGAUAGUUAAGAAGGCACAUGAGGAUCACCCAUGUUGAGU" , reported apparent Kd: 81.2

For reference, reported apparent Kd for "UGAGUUUACUGAGGAUAUUCGGGUCCGACGACAUGAGGAUCACCCAUGUUAGUAAUGCUGCAAGGGAAGAAGGCAGAAAGAACU" stands at 10.7

Data provenance: the EternaBench riboswitch data
